Recorded Relative retention time, RSD (%) values for a group of compounds are listed next.
experiment: GC fingerprint: study on the sample stability; format: physicochemical; conditions: Semen Ziziphi Spinosae oil sample 2 test solution, RSD over 0-12 h
Could you give me the number in %? Just the number is fine.

The cases that follow already have their Relative retention time, RSD (%) on record.
- compound: "CC/C=C\\C/C=C\\C/C=C\\CCCCCCCC(=O)OC [Peak 5]"
  readout_label: "Relative retention time, RSD (%)"
  result_number: 0.04
- compound: "CCCCCCCCCCCCCCCCCCCCCC(=O)OC [Peak 11]"
  readout_label: "Relative retention time, RSD (%)"
  result_number: 0.08
- compound: "CCCCCCCC/C=C\\CCCCCCCC(=O)OC [Peak s]"
  readout_label: "Relative retention time, RSD (%)"
  result_number: 0.00

Dear colleague, I am looking for the recorded Relative retention time, RSD (%) of the following compound: CCCCCCCCCCCCCCCCCCCC(=O)OC [Peak 8] 0.03

====

experiment: GC fingerprint: study on the sample stability; type: physicochemical; conditions: Semen Ziziphi Spinosae oil sample 2 test solution, RSD over 0-12 h
readout_label: Relative peak area, RSD (%)
Could you give me the number in %? Just the number is fine.

The cases that follow already have their Relative peak area, RSD (%) on record.
- molecule: "CC/C=C\\C/C=C\\C/C=C\\CCCCCCCC(=O)OC [Peak 5]"
  readout_label: "Relative peak area, RSD (%)"
  units_label: "%"
  result_number: 1.57
- molecule: "CCCCCCCCCCCCCCCCCCCCCC(=O)OC [Peak 11]"
  readout_label: "Relative peak area, RSD (%)"
  units_label: "%"
  result_number: 1.65
- molecule: "CCCCCCCCCCCCCCCCCCCC(=O)OC [Peak 8]"
  readout_label: "Relative peak area, RSD (%)"
  units_label: "%"
  result_number: 1.16

The record that follows has no Relative peak area, RSD (%) shown yet.
Dear colleague, I am looking for the recorded Relative peak area, RSD (%) of the following molecule: CCCCCCCC/C=C\CCCCCCCC(=O)OC [Peak s] 0.00

====

Recorded Relative retention time, standing time 3 values for a group of compounds are listed next.
assay: GC fingerprint: study on the sample stability; type: physicochemical; settings: Semen Ziziphi Spinosae oil sample 2 test solution, tested at 3 h, GC

Dear colleague, I am looking for the recorded Relative retention time, standing time 3 of the following compound: CCCCCCCCCCCCCCCCCCCC(=O)OC [Peak 8] 1.307

Dear colleague, I am looking for the recorded Relative retention time, standing time 3 of the following compound: CC/C=C\C/C=C\C/C=C\CCCCCCCC(=O)OC [Peak 5] 1.184

Dear colleague, I am looking for the recorded Relative retention time, standing time 3 of the following compound: CCCCCCCCCCCCCCCCCCCCCC(=O)OC [Peak 11] 1.654

Dear colleague, I am looking for the recorded Relative retention time, standing time 3 of the following compound: CCCCCCCC/C=C\CCCCCCCC(=O)OC [Peak s] 1.000

====

test: GC fingerprint: study on the sample stability; type: physicochemical; conditions: Semen Ziziphi Spinosae oil sample 2 test solution, tested at 6 h, GC
Recorded Relative retention time, standing time 6 values for a group of compounds are listed next.

- compound: "CCCCCCCC/C=C\\CCCCCCCC(=O)OC [Peak s]"
  Relative retention time, standing time 6: 1.000
- compound: "CCCCCCCCCCCCCCCCCCCCCC(=O)OC [Peak 11]"
  Relative retention time, standing time 6: 1.653
- compound: "CCCCCCCCCCCCCCCCCCCC(=O)OC [Peak 8]"
  Relative retention time, standing time 6: 1.306

Dear colleague, I am looking for the recorded Relative retention time, standing time 6 of the following compound: CC/C=C\C/C=C\C/C=C\CCCCCCCC(=O)OC [Peak 5] 1.184

From: patent US10881704B2
